Target: IP receptor (Homo sapiens, UniProt P43119)
Construct: HEL cells were collected with centrifugation and washed with cAMP assay buffer
Sequence (P43119 whole entry): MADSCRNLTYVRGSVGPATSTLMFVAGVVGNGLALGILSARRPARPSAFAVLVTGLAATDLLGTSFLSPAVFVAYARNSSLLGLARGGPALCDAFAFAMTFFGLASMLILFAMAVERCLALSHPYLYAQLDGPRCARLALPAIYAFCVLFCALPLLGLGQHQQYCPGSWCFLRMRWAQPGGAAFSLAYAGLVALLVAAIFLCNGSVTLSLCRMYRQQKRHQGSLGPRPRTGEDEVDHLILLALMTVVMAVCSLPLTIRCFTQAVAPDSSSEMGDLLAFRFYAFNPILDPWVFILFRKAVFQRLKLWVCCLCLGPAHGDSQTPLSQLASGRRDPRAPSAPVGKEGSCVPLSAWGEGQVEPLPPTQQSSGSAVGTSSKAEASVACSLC
Test: Iloprost-induced cAMP production assay in HEL cells (Assay 2)
Settings: read-out: Activity grade assay 2
Listed here: items and their measured IC50.

Below, 4 compounds whose answers are already recorded.
compound	reported
O=C(NC(Cc1ccccc1)C(=O)O)c1ccc2cc(OCc3cccc(Br)c3)ccc2c1 (centres unmarked) [Example 1-52]	< 100 nM
O=C(NC(Cc1ccccc1)C(=O)O)c1ccc2cc(OCc3ccccn3)ccc2c1 (centres unmarked) [Example 1-9]	100 to 1000 nM
O=C(NC(Cc1ccccc1C(F)(F)F)C(=O)O)c1ccc2cc(OCc3ccccc3)ccc2c1 (centres unmarked) [Example 1-13]	100 to 1000 nM
O=C(NC(Cc1ccc(I)cc1)C(=O)O)c1ccc2cc(OCc3ccccc3)ccc2c1 (centres unmarked) [Example 1-71]	< 100 nM

Specify reported IC50 for the compound shown: CC(C)COc1cccc(COc2ccc3cc(C(=O)NC(Cc4ccccc4)C(=O)O)ccc3c2)c1 (centres unmarked) [Example 1-93]
100 to 1000 nM

Specify reported IC50 for the compound shown: CCOc1cccc(COc2ccc3cc(C(=O)NC(Cc4ccccc4)C(=O)O)ccc3c2)c1 (centres unmarked) [Example 1-91]
< 100 nM

Specify reported IC50 for the compound shown: O=C(NC(Cc1cccc2ccccc12)C(=O)O)c1ccc2cc(OCc3ccccc3)ccc2c1 (centres unmarked) [Example 1-48]
< 100 nM

Specify reported IC50 for the compound shown: O=C(NC(Cc1ccccn1)C(=O)O)c1ccc2cc(OCc3ccccc3)ccc2c1 (centres unmarked) [Example 1-43]
100 to 1000 nM

---

Target: IP receptor (Homo sapiens)
Construct: HEL cells were collected with centrifugation and washed with cAMP assay buffer
Test: Iloprost-induced cAMP production assay in HEL cells (Assay 2)
Settings: read-out: Activity grade assay 2
Listed here: items and their measured IC50.

Below, 5 compounds whose answers are already recorded.
compound	IC50
O=C(NC(Cc1ccccc1)C(=O)O)c1ccc2cc(OCc3ccccc3C(F)(F)F)ccc2c1 (stereo not drawn)	100 to 1000 nM
O=C(N[C@@H](Cc1ccccc1)C(=O)O)c1ccc2cc(Oc3ccccc3)ccc2c1	> 1000 nM
COc1cccc(COc2ccc3cc(C(=O)NC(Cc4ccccc4)C(=O)O)ccc3c2)c1OC (stereo not drawn)	> 1000 nM
Nc1ccc(CC(NC(=O)c2ccc3cc(OCc4ccccc4)ccc3c2)C(=O)O)cc1 (stereo not drawn)	> 1000 nM
COc1ccc(CC(NC(=O)c2ccc3cc(OCc4ccccc4)ccc3c2)C(=O)O)cc1 (stereo not drawn)	< 100 nM

Specify reported IC50 for the compound shown: CS(=O)(=O)Nc1ccc(CC(NC(=O)c2ccc3cc(OCc4ccccc4)ccc3c2)C(=O)O)cc1 (stereo not drawn)
> 1000 nM

---

Listed here: items and their measured melting point.
Express your answer in °C, writing the number without its unit.

Below, 5 compounds whose answers are already recorded.
compound	measured_property	reported
CCCCOc1ccc2cc(C(=O)NC(Cc3ccccc3)C(=O)O)ccc2c1 (stereo not shown) [Example 1-65]	melting point	209
O=C(NC(Cc1ccccc1)C(=O)O)c1ccc2cc(OCCN3CCCCC3)ccc2c1 (stereo not shown) [Example 1-82]	melting point	215
O=C(NC(Cc1ccccc1)C(=O)O)c1ccc2cc(OCc3ccccc3Cl)ccc2c1 (stereo not shown) [Example 1-23]	melting point	215
O=C(NC(Cc1ccccc1)C(=O)O)c1ccc2cc(OCc3ccc(Cl)cc3Cl)ccc2c1 (stereo not shown) [Example 1-42]	melting point	202
COc1cccc(COc2ccc3cc(C(=O)NC(Cc4ccccc4)C(=O)O)ccc3c2)c1OC (stereo not shown) [Example 1-38]	melting point	161

Specify reported melting point for the compound shown: O=C(NC(Cc1cccc(O)c1)C(=O)O)c1ccc2cc(OCc3ccccc3)ccc2c1 (stereo not shown) [Example 1-47]
214

Specify reported melting point for the compound shown: O=C(NC(Cc1ccccc1)C(=O)O)c1ccc2cc(OCc3c(Cl)cccc3Cl)ccc2c1 (stereo not shown) [Example 1-41]
245

Specify reported melting point for the compound shown: CCCCOc1cccc(COc2ccc3cc(C(=O)NC(Cc4ccccc4)C(=O)O)ccc3c2)c1 (stereo not shown) [Example 1-90]
172

Data provenance: patent US20060166989A1
